Kindly supply the reported TGI values for the records listed here.
Test system: NCI-H226 lung
EXPERIMENT DESCRIPTION: NCI tumour cell line growth inhibition, 48 h

The cases that follow already have their TGI on record.
Oc1ccc(Cl)cc1-c1cc(-c2ccccc2)nc(=S)[nH]1 ... > 100 µM
COc1ccc(-n2c(N)c(C#N)c(C#N)c2-c2ccco2)cc1 ... > 100 µM

Here are 6 compounds. What values of TGI were reported for them?
1. COc1ccc(-c2cc3ccccc3[nH]c2=O)cc1OC
2. O=C1C(N2CCN(CCOCCO)CC2)=C(Cl)C(=O)c2ncccc21
3. O=c1cc[nH]cc1-c1c[nH]ccc1=O
4. COc1ccc(/C=c2\[nH]c3nc(=O)c(N4CCCCC4)c(N)n3c2=O)cc1
5. Nc1c(C(=O)c2cccc(C(O)CO)c2)cnn1-c1ccc(F)cc1 (configuration not stated)
6. c1ccc2c[n+](CCCC[n+]3ccc4ccccc4c3)ccc2c1

1: > 100 µM; 2: > 100 µM; 3: > 100 µM; 4: > 100 µM; 5: > 25 µM; 6: > 100 µM

----------
Tested on: UO-31 renal
EXPERIMENT DESCRIPTION: NCI tumour cell line growth inhibition, 48 h; in the data active = GI50 below about 0.43 µM; inactive = the rest
I would appreciate it if you answered using one of these outcomes: 1 (active), -1 (inactive)

The following molecules have reported results that may help.
CCCCC#Cc1c(I)n(C2OC(CO[Si](C)(C)C(C)(C)C)C3OC(C)(C)OC32)c(=O)n(C(=O)c2ccccc2)c1=O (stereo not given) ... -1
N#C/C(=C/N1CCN(C(=O)c2ccco2)C1=S)C(=O)Nc1ccc(Cl)cc1 ... -1

# fetch the recorded call for CCC[CH2][Sn]([CH2]CCC)([CH2]CCC)/[C](=C/[Si](C)(C)c1ccccc1)c1ccc2c(c1)OCO2 here -1

# fetch the recorded call for CC12CCC(=O)C(O1)C1C(=O)c3ccc4c(ccc5ccccc54)c3C(=O)C12 (stereo not given) here -1

# fetch the recorded call for Cc1nn(C)c2ncnc(N/N=C/c3cccc(O)c3O)c12 here 1

----------
Tested on: MALME-3M melanoma
EXPERIMENT DESCRIPTION: NCI tumour cell line growth inhibition, 48 h; in the data active means GI50 below about 0.43 µM; inactive means the rest
I would appreciate it if you answered using one of these outcomes: 1.0 (active), 0.0 (inactive)

The following compounds have reported results that may help.
CN1CCN(C(=O)c2ccc(NC(=O)Nc3ccc(-c4nc(N5CCOCC5)c5cccn5n4)cc3)cc2)CC1 ... 1.0
Cc1ccc(N2C(=O)C3CSCN3C2=O)cc1 (stereo not drawn) ... 0.0

# fetch the recorded call for COc1cc(/C=C/C(=O)CC(=O)/C=C/c2cc(OC)c(O)c(OC)c2)cc(OC)c1O here 0.0

----------
Test system: EKVX NSCLC
EXPERIMENT DESCRIPTION: NCI tumour cell line growth inhibition, 48 h
Kindly supply the reported TGI values for the records listed here.

The cases that follow already have their TGI on record.
O=C1CC(c2ccsc2)n2cccc21 (stereo not given) ... > 100 µM
COc1cccc(NC(=O)CC(=O)n2nc(-c3ccccc3)c(N=Nc3ccc(Cl)cc3)c2-c2ccccc2)c1 ... 92.8 µM
O=C1OCC2=C1C(c1cccc(C(F)(F)F)c1)c1cc3c(cc1N2CCO)OCCO3 (stereo not given) ... > 33.3 µM
NC(N)=NC(N)=Nc1ccc(C(=O)O)cc1 ... > 100 µM
O=C1C(Cl)=C(Cl)C(=O)N1c1ccc(Cl)c(Cl)c1Cl ... > 100 µM
CCOC(=O)c1cc2c3c(c(C(C)=O)c(OC)c2[nH]1)N(C(=O)CC)CC3 ... 30.6 µM
CC(C)=Cc1cc(CCC/C(C)=C/Cc2c(O)cc(C)c(C(=O)O)c2O)co1 ... > 100 µM
O=c1[nH]cc(N=Cc2cc(Cl)ccc2O)c(=O)[nH]1 ... > 100 µM
CC(C)(C)OC(=O)C(C#N)C(=O)c1ccc(C(=O)O)[nH]1 (stereo not given) ... > 100 µM

Given N#CC1=C(N)NC(N2CCOCC2)=NC12Nc1ccccc1O2 (stereo not given) , state its recorded TGI. > 100 µM

----------
Tested on: PC-3 prostate
EXPERIMENT DESCRIPTION: NCI tumour cell line growth inhibition, 48 h
Where a SMILES comes first, the peptide text is derived from it. The star is where a group is joined. Boc = CC(C)(C)OC(=O)*
Kindly supply the reported TGI values for the records listed here.

Here are 2 molecules. What values of TGI were reported for them?
1. COc1cccc2c1OC1c3ccccc3OCC1(O)C2 (stereo not given)
2. COc1cc(C)cc(C(=O)/C=C/c2ccccc2)c1O

1. > 100 µM
2. 49.8 µM

Here are 5 molecules. What values of TGI were reported for them?
1. OCCCCC#Cc1ccccc1C#Cc1cccnc1
2. N/N=C(/N)SCCCCCCCCCCS/C(N)=N/N
3. Cc1cc2c(c(C(=O)NCC(=O)O)c1)Oc1c(cc(C)cc1C(=O)NCC(=O)O)S2
4. CC(=O)CC(=O)N1CCSC1=S
5. N#CC1=C(N)NC(N2CCOCC2)=NC12Nc1ccccc1O2 (stereo not given)

["> 100 µM", "> 100 µM", "> 100 µM", "> 10 µM", "> 100 µM"]

Here are 2 molecules. What values of TGI were reported for them?
1. COC(=O)C(Cc1c[nH]c2ccccc12)NC(=O)C(Cc1c[nH]c2ccccc12)NC(=O)C(Cc1c[nH]c2ccccc12)NC(=O)C(Cc1c[nH]c2ccccc12)NC(=O)C(Cc1c[nH]c2ccccc12)NC(=O)C(Cc1c[nH]c2ccccc12)NC(=O)C(Cc1c[nH]c2ccccc12)NC(=O)OC(C)(C)C (stereo not given) (Boc-WWWWWWW-OMe; configuration not given here)
2. O=C1OCC2=C1C(c1cccc(C(F)(F)F)c1)c1cc3c(cc1N2CCO)OCCO3 (stereo not given)

> 100 µM
> 33.3 µM

Given CC(C)(C)OC(=O)C(C#N)C(=O)c1ccc(C(=O)O)[nH]1 (stereo not given) , state its recorded TGI. > 100 µM

----------
Kindly supply the reported TGI values for the records listed here.
Tested on: 786-0 renal
EXPERIMENT DESCRIPTION: NCI tumour cell line growth inhibition, 48 h

The cases that follow already have their TGI on record.
Cn1c2ccc(Cl)cc2c2ccc3c(c21)C(=O)C=CC3=O ... > 10 µM
Nc1c(C(=O)c2cccc(C(O)CO)c2)cnn1-c1ccc(F)cc1 (stereo not given) ... > 25 µM
S=C1C(=Nc2ccccc2)N(c2ccccc2)/C(=N\c2cccc[n+]2Cc2ccccc2)N1c1ccccc1 ... 30 µM
CC(=O)CC(=O)N1CCSC1=S ... > 10 µM

Okay, now this molecule:
Given c1ccc2c(Nc3ncco3)cccc2c1 , state its recorded TGI. > 10 µM

----------
System: NCI-H23 lung
EXPERIMENT DESCRIPTION: NCI tumour cell line growth inhibition, 48 h
Kindly supply the reported TGI values for the records listed here.

Cc1nc(NS(=O)(=O)c2ccc(NCN3C(=O)c4ccccc4C3=O)cc2)oc1C ... > 100 µM

Here are 2 compounds. What values of TGI were reported for them?
1. CCOC(=O)[C@@]12C(C)=CC(=O)O[C@]1(C)C1C(=O)NC(=O)C12 (stereo partly drawn)
2. CN(C)CCN1C(=O)c2cccc3c(/C=C/CN4C(=O)c5cccc6cccc(c56)C4=O)ccc(c23)C1=O

["> 100 µM", "> 100 µM"]

----------
Tested on: SW-620 colon
EXPERIMENT DESCRIPTION: NCI tumour cell line growth inhibition, 48 h
ENDPOINT NAME: TGI

The cases that follow already have their TGI on record.
NC1CCCCC1NCCNC1CCCCC1N (stereo unspecified) ... > 100 µM
CCCCCCCC(=O)[O-].CCCCCCCC(=O)[O-].N.N.N.N.[Co+3].[O-][Cl+3]([O-])([O-])[O-] ... > 100 µM
CCCCC#Cc1c(I)n(C2OC(CO[Si](C)(C)C(C)(C)C)C3OC(C)(C)OC32)c(=O)n(C(=O)c2ccccc2)c1=O (stereo unspecified) ... 6.03 µM

Here are 7 compounds. What values of TGI were reported for them?
1. COc1cc2nc(N3CCC[C@H](NC4=CC(=O)c5ccccc5C4=O)C3)nc(N)c2cc1OC
2. CCCCCCC(=O)C/C(CCC(=O)N(Cc1ccccc1)Cc1ccccc1)=N\NC(N)=O
3. Cn1c2ccc(Cl)cc2c2ccc3c(c21)C(=O)C=CC3=O
4. O=C1CC(c2cccc(Cl)c2)Oc2ccccc21 (stereo unspecified)
5. CCOC(=O)CCc1cn2cc(Br)nc(OC)c2n1
6. O=c1[nH]nc(-c2ccccc2)c2[nH]c3c(c12)Cc1ccccc1-3
7. CCOc1ccc2nc3nc(=O)[nH]c(C)c3c(NC(C)(CO)CO)c2c1

3.32 µM
> 100 µM
> 10 µM
72.1 µM
> 100 µM
> 100 µM
> 100 µM

Given Cc1ccc(S(=O)(=O)n2cc([C@@]3(O)C[C@H](CSC#N)OC3=O)c3ccccc32)cc1 , state its recorded TGI. 19.5 µM

The reported numbers originate from PubChem BioAssay (NCI).
